SUBJECT OF TEST: BTK (Homo sapiens)
TEST DESCRIPTION: biochemical
ASSAY CONTEXT: read-out: BTK inhibition (%), 0.75 uM BTK, […] probe 3l, 15 min preincubation
// reported inhibition at 10 µM for each item listed
State the answer as a number, implicitly in %.

// known answers, use as guide
MOLECULE: CC(C)n1c(/C=C/[C@H](O)C[C@H](O)CC(=O)O)c(-c2ccc(F)cc2)c2ccccc21 [PCM-0090402]
inhibition at 10 µM / %: 15.9
--
MOLECULE: Cc1coc2c1C(=O)C(=O)c1c-2ccc2c1CCCC2(C)C [PCM-0091329]
inhibition at 10 µM / %: 16.3
--
MOLECULE: COc1cc(N2CCC(N)CC2)ccc1Nc1ncc(Cl)c(-c2c[nH]c3ccccc23)n1 [PCM-0215211]
inhibition at 10 µM / %: 95.9

Let us move to another entry and its inhibition at 10 µM.
What inhibition at 10 µM value was documented for this molecule, O=C1CCCC(=O)C1C(=O)c1ccc(C(F)(F)F)cc1[N+](=O)[O-] [PCM-0216128] ? -10

###

Below: a set of entries, each annotated with reported BTK inhibition (%).
SUBJECT OF TEST: BTK (Homo sapiens, UniProt Q06187)
Sequence (Q06187 402-655 limits assumed): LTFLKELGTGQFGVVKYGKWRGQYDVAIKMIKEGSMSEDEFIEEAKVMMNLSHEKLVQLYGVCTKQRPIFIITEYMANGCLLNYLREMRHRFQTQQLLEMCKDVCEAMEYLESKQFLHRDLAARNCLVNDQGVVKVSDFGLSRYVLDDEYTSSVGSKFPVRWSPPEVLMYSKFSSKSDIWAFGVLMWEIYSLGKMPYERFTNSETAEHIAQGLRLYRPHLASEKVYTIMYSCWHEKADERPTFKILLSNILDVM
ASSAY CONTEXT: 0.75 uM BTK, […] probe 3l, 15 min preincubation; 10 µM; inhibitor
State just the number; it will be interpreted in %.

Field: example entries. Status: answers known.
COMPOUND: CCCCC(C#N)(Cn1cncn1)c1ccc(Cl)cc1 (stereo not shown)
REPORTED ENDPOINT: BTK inhibition (%)
UNIT OF MEASUREMENT: %
MEASURED: 3.1
//
COMPOUND: CC(C)[C@]12O[C@H]1[C@@H]1O[C@]13[C@]1(O[C@H]1C[C@H]1C4=C(CC[C@@]13C)C(=O)OC4)[C@@H]2O
REPORTED ENDPOINT: BTK inhibition (%)
UNIT OF MEASUREMENT: %
MEASURED: 6.2
//
COMPOUND: Cn1c(CCCC(=O)O)nc2cc(N(CCCl)CCCl)ccc21
REPORTED ENDPOINT: BTK inhibition (%)
UNIT OF MEASUREMENT: %
MEASURED: -3.9
//
COMPOUND: ClC(Cl)=C(c1ccc(Cl)cc1)c1ccc(Cl)cc1
REPORTED ENDPOINT: BTK inhibition (%)
UNIT OF MEASUREMENT: %
MEASURED: 10.8
//
COMPOUND: CCN(C)C(=O)Oc1cccc([C@H](C)N(C)C)c1
REPORTED ENDPOINT: BTK inhibition (%)
UNIT OF MEASUREMENT: %
MEASURED: 1.6
//
COMPOUND: O=C(Nc1ccc(Oc2ccc(Cl)cc2)c(Cl)c1)c1cc(I)cc(I)c1O
REPORTED ENDPOINT: BTK inhibition (%)
UNIT OF MEASUREMENT: %
MEASURED: 37.1
//
COMPOUND: COc1cc([C@H]2OC[C@@H]3[C@@H]2CO[C@H]3c2cc(OC)c(O[C@@H]3O[C@H](CO)[C@@H](O)[C@H](O)[C@H]3O)c(OC)c2)cc(OC)c1O[C@@H]1O[C@H](CO)[C@@H](O)[C@H](O)[C@H]1O
REPORTED ENDPOINT: BTK inhibition (%)
UNIT OF MEASUREMENT: %
MEASURED: -10
//
COMPOUND: CC[C@@]1(O)C(=O)OCc2c1cc1n(c2=O)Cc2cc3cc(O)ccc3nc2-1
REPORTED ENDPOINT: BTK inhibition (%)
UNIT OF MEASUREMENT: %
MEASURED: -14

Name the reported BTK inhibition (%) value associated with the compound `C[C@@H]1O[C@@H](O[C@H]2C[C@@H](O)[C@]3(CO)[C@H]4[C@H](O)C[C@]5(C)[C@@H](C6=CC(=O)OC6)CC[C@]5(O)[C@@H]4CC[C@]3(O)C2)[C@H](O)[C@H](O)[C@H]1O` -5.4

And the next one, `O=C(O[C@H]1C[N+]2(CCCOc3ccccc3)CCC1CC2)C(O)(c1cccs1)c1cccs1` ? -24.1

And `O=c1ccc2cc3ccoc3c(O)c2o1` ? -6.2

Okay, and `CC(C)=CCC[C@]1(C)C=Cc2c(O)c3c(c(CC=C(C)C)c2O1)O[C@]12C(=C[C@@H]4C[C@H]1C(C)(C)O[C@@]2(C/C=C(/C)C(=O)O)C4=O)C3=O` ? -1.6

Ok, now CN1C2CC(OC(=O)C(CO)c3ccccc3)CC1C(O)C2 (stereo not shown) 6.9

Okay, and `COc1ccc2c(c1)[nH]c1c(C)nccc12` ? -17.1

Cool, now C[N+]1(C)[C@@H]2CC(OC(=O)C(O)(c3cccs3)c3cccs3)C[C@H]1[C@@H]1O[C@@H]12 (stereo partly shown) -5.4

O=C(O)C1C2CCC(O2)C1C(=O)O (stereo not shown) ? -7.7

Now the compound CN1[C@@H]2CC(OC(=O)[C@H](CO)c3ccccc3)C[C@H]1[C@@H]1O[C@@H]12 (stereo partly shown) -3.1

Same again, this time with CC(C)[N+]1(C)[C@@H]2CC[C@H]1CC(OC(=O)C(CO)c1ccccc1)C2 (stereo partly shown) -24.9

Same lookup for `C1CCN2C[C@H]3C[C@H](CN4CCCC[C@@H]34)[C@H]2C1` , please. 6.9

Record: `CO[C@H]1/C=C/O[C@@]2(C)Oc3c(C)c(O)c4c(O)c(c(/C=N/N5CCN(C)CC5)c(O)c4c3C2=O)NC(=O)/C(C)=C\C=C\[C@H](C)[C@H](O)[C@@H](C)[C@@H](O)[C@@H](C)[C@H](OC(C)=O)[C@@H]1C` 32.7

What about this compound? `CC1=C(O)C(=O)C=C2C1=CC=C1[C@@]2(C)CC[C@@]2(C)[C@@H]3C[C@](C)(C(=O)O)CC[C@]3(C)CC[C@]12C` 67.7

Param item: `O=C(O[C@H]1CN2CCC1CC2)N1CCc2ccccc2[C@@H]1c1ccccc1` -27.2

Cool, now `Cc1cc2c(C(C)C)c(O)c(O)c(C=O)c2c(O)c1-c1c(C)cc2c(C(C)C)c(O)c(O)c(C=O)c2c1O` 75.5

And the next one, `O=c1ccc2cc(O[C@@H]3O[C@H](CO)[C@@H](O)[C@H](O)[C@H]3O)c(O)cc2o1` ? 0

And the next one, `CC(=O)O[C@H]1C[C@@H]2CC[C@@H]3[C@H](CC[C@@]4(C)[C@H]3C[C@H]([N+]3(C)CCCCC3)[C@@H]4OC(C)=O)[C@@]2(C)C[C@@H]1N1CCCCC1` ? -6.2

Repeat for the following compound: CN1CCN(C(=O)C2C3CCC(O3)C2C(=O)O)CC1 (stereo not shown) -11.1

Can you check `CCNc1nc(Cl)nc(NC(C)C)n1` next? 3.9

Here is the next compound: `COC(=O)Nc1nc2ccccc2[nH]1` -9.3

Try this compound next: `COC(=O)c1ccccc1C(=O)OC` -9.3

Then this compound: `CC[N+](C)(CC)CCOC(=O)C(O)(c1ccccc1)c1ccccc1` -19.5

Moving on to `CN(C)C(=O)Oc1ccc[n+](C)c1` -25.7

###

Below, each entry is listed alongside its reported inhibition at 10 µM.
SUBJECT OF TEST: BTK (Homo sapiens, UniProt Q06187)
TEST DESCRIPTION: biochemical
ASSAY CONTEXT: read-out: BTK inhibition (%), 0.75 uM BTK, […] probe 3l, 15 min preincubation
Value expressed in %; do not type the unit.

Solved cases below.
COMPOUND: CC(C)(C)C(O)/C=C/c1ccc2c(c1)OCO2 (centres unmarked) [PCM-0216138]
inhibition at 10 µM [%]: -4.6
//
COMPOUND: CN(C)N(C)C(=O)[C@@]1(Cc2ccccc2)CCCN(C(=O)[C@@H](Cc2c[nH]c3ccccc23)NC(=O)C(C)(C)N)C1 [PCM-0215100]
inhibition at 10 µM [%]: 4.6
//
COMPOUND: Cc1cnc(NC(=O)C2=C(O)c3ccccc3S(=O)(=O)N2C)s1 [PCM-0086060]
inhibition at 10 µM [%]: -6.2
//
COMPOUND: CC(C)=CCC[C@](C)(O[C@@H]1O[C@H](CO)[C@@H](O)[C@H](O)[C@H]1O)[C@H]1CC[C@]2(C)[C@@H]1[C@H](O)C[C@@H]1[C@@]3(C)CC[C@H](O)C(C)(C)[C@@H]3[C@@H](O[C@@H]3O[C@H](CO)[C@@H](O)[C@H](O)[C@H]3O[C@@H]3O[C@@H](C)[C@H](O)[C@@H](O)[C@H]3O)C[C@]12C [PCM-0214989]
inhibition at 10 µM [%]: -8.6
//
COMPOUND: C[C@@H](O)[C@H]1C(=O)N2C(C(=O)O)=C([C@H]3CCCO3)S[C@H]12 [PCM-0215154]
inhibition at 10 µM [%]: -2.3

Suppose we examine the compound C[C@]12CC[C@H](O)CC1=CC[C@@H]1[C@@H]2CC[C@]2(C)C(n3cnc4ccccc43)=CC[C@@H]12 [PCM-0095399] ; what inhibition at 10 µM value has been reported? 0

Consider next the compound c1cc2c(c3c1CC1c4cc5c(cc4CCN1C3)OCO5)OCO2 (centres unmarked) [PCM-0216476] in the same way. -13.9

Param item: COC(=O)[C@@]1(C)CC[C@]2(C(=O)O)CC[C@]3(C)C(=CC[C@@H]4[C@@]5(C)C[C@H](O)[C@H](O[C@@H]6OC[C@@H](O[C@@H]7O[C@H](CO)[C@@H](O)[C@H](O)[C@H]7O)[C@H](O)[C@H]6O)[C@@](C)(CO)[C@@H]5CC[C@]43C)[C@@H]2C1 [PCM-0216472] 2.3

Next: CC(C[N+](C)(C)C)OC(N)=O (centres unmarked) [PCM-0064662] -7

Same again, this time with C/C=C(\C)C(=O)O [PCM-0215012] 15.6

One more compound: CS(=O)(=O)c1cccc(CNc2nc(Nc3ccc4c(c3)CCC(=O)N4)ncc2C(F)(F)F)c1 [PCM-0064954] 55.2

Queued: C#Cc1cccc(Nc2ncnc3cc4c(cc23)OCCOCCOCCO4)c1 [PCM-0095422] -16.6

Quick one: O=C(N/N=C/c1cc(O)c(O)cc1O)c1cc2ccccc2cc1O [PCM-0215496] 77.2

Same thing, different compound: CN(C)[C@@H]1C(=O)C(C(N)=O)=C(O)[C@@]2(O)C(=O)C3=C(O)c4c(O)cccc4[C@@](C)(O)[C@H]3C[C@@H]12 [PCM-0085873] 6.2
